Please go through the items and note down their TGI.
System: SN12C renal
Assay: NCI tumour cell line growth inhibition, 48 h
Express your answer in µM, writing the number without its unit.

Entry O=C(Nc1cnc(C(F)(F)F)cn1)c1cc(Cl)ccc1O — recorded TGI = 52.4

What the record says about COc1cccc(C2C(C#N)=C(N)Oc3c2ccc2ccccc32)c1 (stereo unspecified) : TGI is 13.5

// TGI lookup, compound = CN1CCN(c2cc3nc4ccccc4n(-c4ccc(Cl)cc4)c-3cc2=N)CC1 , result: 41.4

Record summary for C=C1C(=O)O[C@H]2[C@H]1CC/C(CNC(=O)/C=C/c1ccccc1)=C\CC[C@@]1(C)O[C@@H]21 : reported TGI = 2.79

The value of TGI measured for the compound COc1nc(OC)nc(-c2cccc(F)c2)n1 turned out to be 31.5

====

Tested on: SNB-19 CNS
Assay: NCI tumour cell line growth inhibition, 48 h; in the data active means GI50 below about 0.43 µM; inactive means the rest
Mark one answer only. Choices: active, inactive

What was the test verdict on CC(=O)O.CC(=O)O.CC(=O)O.CC(=O)O.[Rh].[Rh] ?
inactive

Which outcome was assigned to Nc1n[nH]c2ccc([C@@H]3Nc4cc5[nH]ncc5cc4[C@H]4C5CCC(C5)[C@@H]34)cc12 (some centres undefined) in this test?
inactive

Per the assay record, what outcome was assigned to Cc1ccc(Sc2oc(-c3ccc(C)cc3)nc2[P+](c2ccccc2)(c2ccccc2)c2ccccc2)cc1 ?
active

What did this assay record as the result for COc1cccc(C2C(C#N)=C(N)Oc3c2ccc2ccccc32)c1 (centres undefined) ?
active

Please share the test call associated with COc1ccc2c(c1)C(=O)c1c-2c(N2CCNCC2)nc2ccccc12 .
inactive

Please share the test call associated with O=c1c(-c2ccccc2)coc2cc(OC/C(=N/O)c3ccc(F)cc3)ccc12 .
inactive

Hey, what did the test say about COc1ccc2c(c1)C(=O)c1c-2n(CCCN)c(=O)c2cc([N+](=O)[O-])ccc12 ?
active

Recorded test call requested for C=C1CC[C@@H]2[C@](C)(COC(C)=O)[C@H](OC(C)=O)CC[C@@]2(C)[C@@H]1CC(Nc1ccc(S(=O)(=O)Nc2nccs2)cc1)C1=CCOC1=O (some centres undefined)
inactive

Entry N/C(=N\c1nc2ccccc2s1)NC(=NC1CCCCC1)NC1CCCCC1 : call = ?
inactive

====

Test system: TK-10 renal
Assay: NCI tumour cell line growth inhibition, 48 h
Give GI50 for every item shown.

Sure, the documented GI50 for CCOC1OC(=O)[C@H]2[C@@H]1[C@@H]1CC[C@H]2O1 (some centres undefined) is > 100 µM

What the record says about O=C1CCC(N2C(=O)c3cccc(NCCCC4CCN(CCNC(=O)c5cc6c(o5)C(=O)c5ccccc5C6=O)CC4)c3C2=O)C(=O)N1 (centres undefined) : GI50 is 2.25 µM

GI50 reading for Cc1cc(NC(=O)c2cnc(N3CCN(CCOCCOCCOCCOCCC(=O)N[C@H](C(=O)N4C[C@H](O)C[C@H]4C(=O)N[C@@H](C)c4ccc(-c5scnc5C)cc4)C(C)(C)C)CC3)cn2)c2ncccc2c1 : 10.7 µM

Given item Cc1cccc2c(Nc3ccc(NS(C)(=O)=O)cc3)c3ccc([N+](=O)[O-])cc3nc12 , the value recorded as its GI50 is 3.16 µM

====

Could you please report measured TGI for the items listed next?
Test system: PC-3 prostate
Test: NCI tumour cell line growth inhibition, 48 h

Form: compound = CC(=O)c1ccc(N2CCN(C3=CC(=O)c4c(O)ccc(O)c4C3=O)CC2)cc1 ; TGI = > 100 µM

What the record says about COc1cc(OC)c2c(O)c(S(=O)(=O)c3ccc(C)cc3)c(=O)oc2c1 : TGI is > 100 µM

The compound CC1C2CC(C/C2=N/O)C1(C)C (stereo unspecified) showed TGI equal to > 100 µM

TGI for CN(C)C(=O)C(F)(F)C(c1ccc(Br)cc1)C1C(=O)N(C)C(=O)N(C)C1=O (stereo unspecified) is > 100 µM

COc1cc(/C=C/[N+](=O)[O-])cc(OC)c1OC has a reported TGI of 10.6 µM

Item: O=c1[nH]cnc2sc(=S)c3c(c12)CCC3 | TGI: > 100 µM

Record CCOC(=O)C(NC(=O)CC)(Nc1ccc(S(=O)(=O)Nc2nc(C)cc(C)n2)cc1)C(F)(F)F (stereo unspecified) , field TGI: > 100 µM

Summary for this compound, CC/C=C\C/C=C/C=C1/C(=O)C=C[C@@H]1C/C=C\CCCC(=O)OC : TGI is 7.1 µM

response.value for CC(C)C(C/C=C1/CC(CO)(COC(=O)C2CCCCC2)OC1=O)C(C)C (stereo unspecified) (field: TGI) = 35.6 µM

The reported value for O=C1CSC(c2ccccc2O)N1c1nnc(Cn2ccnc2)o1 (stereo unspecified) in terms of TGI is 30.4 µM

Given item COc1cccc(C2C(C#N)=C(N)Oc3c2ccc2ccccc32)c1 (stereo unspecified) , the value recorded as its TGI is 15.5 µM

====

Tested on: HT29 colon
Test: NCI tumour cell line growth inhibition, 48 h; in the data active means GI50 below about 0.43 µM; inactive means the rest
API: response.call in active, inactive

Short answer needed: outcome of this test for COc1cccc(C2C(C#N)=C(N)Oc3c2ccc2ccccc32)c1 (centres undefined) ?
active

Field: outcome | Entry: CC1=C(C(=O)Nc2ccc(F)c(Cl)c2)C(c2ccccc2O)NC(=O)N1 (centres undefined)
inactive

Per the records of this test, what outcome belongs to O=C1CSC(c2ccccc2O)N1c1nnc(Cn2ccnc2)o1 (centres undefined) ?
inactive

Dear all, I need the recorded test outcome for CCN(CC)CCCC(C)Nc1c(-c2ccccc2)cnc2cc(Cl)ccc12 (centres undefined) , thank you.
inactive

Record lookup: outcome of this test for COc1cc(OC)cc(-c2n/c(=C\c3c(O)[nH]c4ccc(Cl)cc34)cc3c2=Nc2ccccc2-3)c1 ?
inactive

Kindly provide the recorded test outcome for the following molecule: COc1cc(C2CC(=O)Nc3c2cc(Br)c2ccccc32)cc(Br)c1OC (centres undefined)
inactive

Please state the recorded outcome for this molecule: CN(c1ccc(C#N)c(Cl)c1)C1CCC(NC(=O)c2ccc(N3CCN(C4CN(c5ccc6c(c5)C(=O)N(C5CCC(=O)NC5=O)C6=O)C4)CC3)cc2)CC1 (centres undefined)
inactive

Identify the outcome logged in this assay for the molecule shown: Nc1n[nH]c(N)c1N=Nc1ccc(O)cc1
inactive

Dear colleague, could you share the recorded outcome for Nc1ncccc1-c1nc2ccc(-c3ccccc3)nc2n1-c1ccc(C2(N)CCC2)cc1 when you have a moment?
inactive

Assay outcome for Cc1oc2c(c1C(=O)N1CC[C@@H](N)C1)C(=O)c1c(c(O)c3ccccc3c1O)C2=O : what was it?
inactive

// return assay outcome for CCOC(=O)C1=C(C)N2C(=NC3=C(CCC/C3=C\c3ccc(Cl)cc3)C2c2ccc(Cl)cc2)S1 (centres undefined)
inactive

Entry C=CCCCOC1[C@H](OCc2ccccc2)C(OCc2ccccc2)C(OC)O[C@@H]1CNC(=O)c1cccc(I)c1 (some centres undefined) : call = ?
inactive

Per the assay record, what outcome was assigned to O=S(=O)(NC1=NCCN1C(=S)SN1CCn2c1nsc2=S)c1cccc(OC(F)(F)F)c1 ?
inactive

Could you please tell me the result logged for NNc1c2ccccc2nc2ccccc12 in this assay?
inactive

What call does the record list for N.N.N.N.N.O=S(=O)([O-])C(F)(F)F.O=S(=O)([O-])C(F)(F)F.[Os+8] ?
inactive

// param item: N/C(=N\c1nc2ccccc2s1)NC(=NC1CCCCC1)NC1CCCCC1 ; yields the recorded call
inactive

Tell me the assay call for CC/C=C\C/C=C/C=C1/C(=O)C=C[C@@H]1C/C=C\CCCC(=O)OC please.
inactive

For O=C(NN1C(=O)CSC1c1ccc(F)cc1)C(O)c1ccccc1 (centres undefined) , which call appears in the assay record?
inactive

Answer briefly: the call reported for COc1ccc2c(c1)C(=O)c1c-2c(N2CCNCC2)nc2ccccc12 in this assay.
inactive

====

For each of the compounds below, state its TGI.
Test system: RXF 393 renal
Experiment: NCI tumour cell line growth inhibition, 48 h
Where a SMILES comes first, the peptide text is derived from it. [ ]: non-standard residue; d: D form. The star is where a group is joined. ξ: configuration not given here. ξD = NC(CC(=O)O)C(=O)O; Ac3c = NC1(C(=O)O)CC1; Boc = CC(C)(C)OC(=O)*; OtBu = CC(C)(C)O*

Lab note: CCOC1OC(=O)[C@H]2[C@@H]1[C@@H]1CC[C@H]2O1 (stereo partly specified) gave TGI of > 100 µM

// recorded TGI for COc1cc(C2CC(=O)Nc3c2cc(Br)c2ccccc32)cc(Br)c1OC (stereo unspecified) : 3.93 µM

The recorded TGI for entry CCCCCn1c(=O)c2c(=O)[nH][nH]c2c2ccccc21 equals > 100 µM

Memo: c1csc(-c2csc(-c3ccsc3)c2)c1 , reported TGI: > 100 µM

# compound C[C@H]1c2ccccc2CN1CCCOc1cc2c(cc1OCC1CC1)C1(CCCC1)C(N)=N2 ; its TGI = 3.82 µM

# compound OC(CCN1CCN(CCOC(c2ccccc2)c2ccccc2)CC1)c1ccc(Br)cc1 (stereo unspecified) ; its TGI = 22.9 µM

The measured TGI associated with CC1=NN(C(=O)c2ccc(Cl)cc2)C(=O)/C1=C/c1ccc(Cl)cc1 reads > 100 µM

Consider Cc1nc2c(sc(=S)n2-c2ccccc2)c2nc3ccccc3n12 . Its measured TGI is > 100 µM

Kindly note the recorded TGI for CCSc1nc(N)c(C#N)c(-c2ccco2)c1C#N , which is > 100 µM

Lab note: measured TGI of COc1nc(OC)nc(-c2cccc(F)c2)n1 was 35 µM

The recorded TGI for entry COC(=O)C1(NC(=O)C(CC(=O)OC(C)(C)C)NC(=O)OC(C)(C)C)CC1 (stereo unspecified) (Boc-[ξD](OtBu)-[Ac3c]-OMe) equals > 100 µM
